Tested on: A549
Run Description: Antiproliferative activity against human A549 cells incubated for 72 hrs by MTT assay
Format: functional, cell-based
Condition Label: A549, 72 h
For each record, write down the corresponding IC50.

COc1cc(CCc2cccc(Cl)c2Cl)cc(OC)c1O ... 3.99 µM

Provide IC50 values for the following items, in order.
1. COc1cc(CCc2ccc(Br)cc2)cc(OC)c1O
2. COc1ccccc1CCc1cc(OC)c(O)c(OC)c1
3. COc1ccc(CCc2ccc(OC)c(OC)c2)cc1O
4. COc1ccc(CCc2ccccn2)cc1OC
5. COc1cc(CCc2ccccc2)cc(OC)c1O
6. COc1ccc(CCc2ccccc2Cl)cc1OC

# output
> 25 µM
1.74 µM
4.79 µM
> 25 µM
10.9 µM
> 25 µM

Return reported IC50 values for all items listed beneath this line.
1. COc1cc(CCc2ccccc2F)cc(OC)c1O
2. COc1cc(CCc2ccc(Cl)cc2Cl)cc(OC)c1O
3. COc1cc(CCc2ccc([N+](=O)[O-])cc2)cc(OC)c1O
4. COc1ccc(CCc2ccc([N+](=O)[O-])cc2)cc1OC
5. COc1cc(CCc2ccc(Cl)cc2)cc(OC)c1O
6. COc1ccc(CCc2ccccc2)cc1OC

# output
> 25 µM
3.84 µM
9.13 µM
> 25 µM
22.9 µM
> 25 µM
